Readings of Pathogen Box screen signal/noise ratio for the listed molecules
target-system: Mycobacterium thermoresistible (Mtr) LpqY (Mycolicibacterium thermoresistibile, UniProt G7CES0)
Sequence (G7CES0 29-471): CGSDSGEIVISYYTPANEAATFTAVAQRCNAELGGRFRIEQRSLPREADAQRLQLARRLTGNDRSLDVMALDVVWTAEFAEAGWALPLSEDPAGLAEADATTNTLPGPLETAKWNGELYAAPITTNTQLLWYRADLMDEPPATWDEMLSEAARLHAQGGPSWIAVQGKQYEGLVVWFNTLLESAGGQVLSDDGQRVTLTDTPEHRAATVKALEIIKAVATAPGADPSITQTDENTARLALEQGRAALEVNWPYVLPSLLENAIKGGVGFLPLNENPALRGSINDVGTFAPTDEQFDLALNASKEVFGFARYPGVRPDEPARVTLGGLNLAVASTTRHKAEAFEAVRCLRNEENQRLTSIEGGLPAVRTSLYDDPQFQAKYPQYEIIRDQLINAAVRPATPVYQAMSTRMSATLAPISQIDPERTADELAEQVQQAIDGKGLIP
Type: binding
recorded-conditions: single dose MST screen against LpqY
measure: Pathogen Box screen signal/noise ratio

>>> df
                                   molecule                                 measure  measurement
0  Cc1cc(C)n2nc(C(=O)Nc3cc(C(F)(F)F)ccc3N3CCOCC3)nc2n1  Pathogen Box screen signal/noise ratio          1.2
1  CC(C)(C(=O)Nc1ccc(F)cc1)n1cc(-c2ccccc2F)cn1  Pathogen Box screen signal/noise ratio        0.467
2  Cc1cc(OCC(=O)Nc2ccc(C(C)C)cc2)n(C)c(=O)c1C#N  Pathogen Box screen signal/noise ratio          1.0
3  CN1CCN(c2cc(-c3ccc(F)cc3)nc(-c3ccncc3)n2)CC1  Pathogen Box screen signal/noise ratio          2.6
4        Nc1ncnc2[nH]nc(Cc3cccc4ccccc34)c12  Pathogen Box screen signal/noise ratio        0.357
5  CCOc1ccccc1NC(C)C(=O)Nc1cc(C(F)(F)F)ccc1N1CCOCC1 (stereo not drawn)  Pathogen Box screen signal/noise ratio          2.3
6  COCC(C)NC(=O)CSc1ncnc2sc(-c3ccccc3)cc12 (stereo not drawn)  Pathogen Box screen signal/noise ratio          1.9
7               CS(=O)(=O)Cc1nc2ccccc2oc1=O  Pathogen Box screen signal/noise ratio          3.2
8  CC(C)(C)c1cc(C(=O)N2CCN(c3nccnc3C#N)CC2)n(Cc2ccccc2)n1  Pathogen Box screen signal/noise ratio          0.7

----------
target-system: Mycobacterium thermoresistible (Mtr) LpqY (Mycolicibacterium thermoresistibile, UniProt G7CES0)
Type: binding
recorded-conditions: single dose MST screen against LpqY
Outcome: 1 for Pathogen Box screen signal/noise ratio of at least 1; 0 for anything lower.

compound	class-name
O=C(NCc1nnc2n1CCCCC2)c1ccc(-c2ccc(F)cc2)o1	0
O=C(Nc1ccc2c(c1)B(O)OC2)c1ccccc1C(F)(F)F	0
CCNC(=O)C(C)Nc1nc(-c2cccnc2)nc2sc(C)c(C)c12 (centres unmarked)	1
Cc1nn(Cc2ccccc2)c(Cl)c1C(=O)NC1CCCCCC1	1
O=C([C@@H](c1ccc(Cl)cc1)c1cccnc1)N1CCN(c2ccc(C(F)(F)F)cc2)CC1	1
NCCC(O)C(=O)N[C@@H]1C[C@H](N)[C@@H](OC2O[C@H](CN)[C@@H](O)[C@H](O)[C@H]2O)[C@H](O)C1OC1O[C@H](CO)[C@@H](O)[C@H](N)[C@H]1O (some centres unmarked)	1
Cc1ccccc1C(=O)N1N=C(Nc2ccccc2)SC1(C)C	0
CC(Oc1ccccc1)C(=O)Nc1nc(-c2ccccn2)cs1 (centres unmarked)	0

----------
target-system: Mycobacterium thermoresistible (Mtr) LpqY (Mycolicibacterium thermoresistibile)
method: Affinity studies with microscale thermophoresis (MST)
pKd: −log10 of the molar value.
measure: pKd

In [3]: df
Out[3]:
                                   compound  measurement
0  CC(=O)Oc1ccccc1C(=O)Nc1ncc([N+](=O)[O-])s1 [MMV688991, Nitazoxanide, reference compound]         4.07
1  CCOC(=O)NC(=O)c1ccsc1NC(=O)c1nc2ccccc2s1 [MMV090930, TCA1, reference compound]         4.85

----------
target-system: Mycobacterium thermoresistible (Mtr) LpqY (Mycolicibacterium thermoresistibile, UniProt G7CES0)
Format: binding
recorded-conditions: single dose MST screen against LpqY
measure: Pathogen Box screen signal/noise ratio

>>> print(df.to_string())
                                   compound  measurement
0  O=[N+]([O-])c1cn2c(n1)OC[C@@H](OCc1ccc(OC(F)(F)F)cc1)C2 [MMV688755]          0.4
1  Cc1nn(C(=O)Nc2cccc(C(F)(F)F)c2)c(C)c1Sc1ncccn1 [MMV688552]          0.8
2  COc1cc(-c2cc(-c3ccc(S(C)(=O)=O)cc3)cnc2N)ccc1O [MMV010576]          3.1
3  O=C1Nc2ccc(Br)cc2C12NCCc1c2[nH]c2ccccc12 (stereo not drawn) [MMV006239]          2.0
4  COc1ccc(OC(C)C(=O)Nc2ccc(Cl)cc2C)cc1 (stereo not drawn) [MMV202458]          5.5
5  O=C(c1cc2ccccc2o1)N1CCN(Cc2ccc3c(c2)OCO3)CC1 [MMV676520]          1.1
6  Cc1cc(C(=O)Nc2ccc(-c3ccccc3)cc2)no1 [MMV020152]        0.742
7  NS(=O)(=O)c1cncc(-c2ccc3nccc(-c4cn[nH]c4)c3n2)c1 [MMV024101]        0.429
8  Cc1nc(-c2ccccn2)nc(N(C)CCc2ccccc2)c1Cl [MMV658988]          2.9

----------
target-system: Mycobacterium thermoresistible (Mtr) LpqY (Mycolicibacterium thermoresistibile, UniProt G7CES0)
Format: binding
recorded-conditions: single dose MST screen against LpqY
measure: Pathogen Box screen signal/noise ratio

In [3]: df
Out[3]:
                                   compound  measurement
0  CCn1ncc2c(NC3CCOCC3)c(CNC(=O)c3ccnn3C)c(C)nc21          0.6
1  O=C(Nc1ccc(N2CCNCC2)cc1)c1ccn2ncc(-c3cccc(Cl)c3)c2n1          2.0
2  CNC(=O)CNc1nc(-c2ccccn2)nc2scc(-c3ccccc3)c12        0.463
3  O=S(=O)(c1ccc(Cl)cc1)N1CCN(C(=S)NCc2ccco2)CC1          2.2
4  CCc1ccc(C(NCc2nc(N)nc(N(C)C)n2)C(C)C)cc1 (stereo not drawn)          0.5
5    O=C(NC1CC1)c1ccc(N2CCOc3ccc(Cl)cc32)s1          1.9
6          COc1cc(C(F)(F)F)nc2ccc(C)c(N)c12          2.0
7  COc1ccc(C2=NCCN2)cc1-c1cn(-c2cccc(C3=NCCN3)c2)nn1          0.9
8  O=C(NCCc1ccccc1)c1cc(-c2cccnc2)cnc1NCC1CC1          1.4

----------
target-system: Mycobacterium thermoresistible (Mtr) LpqY (Mycolicibacterium thermoresistibile, UniProt G7CES0)
Assay type: binding
recorded-conditions: single dose MST screen against LpqY
Outcome: yes (1) for Pathogen Box screen signal/noise ratio of at least 1; no (0) for anything lower.

>>> print(df.to_string())
                                 mol_smiles  class_name
0  O=C(Nc1cccc(-c2ccc(NCCCN3CCCC3)nc2)c1)c1ccccc1     yes (1)
1  CC(C)(C)OC(=O)N1CCN(c2nccc(-c3ccc(-c4ccc(Cl)cc4)s3)n2)CC1      no (0)
2        Nc1ncc(Br)cc1-c1nc2cc(Cl)cnc2[nH]1     yes (1)
3        CCCCc1ccc(C(=O)Nc2nccc3ccccc23)nc1      no (0)

----------
target-system: Mycobacterium thermoresistible (Mtr) LpqY (Mycolicibacterium thermoresistibile, UniProt G7CES0)
Format: binding
recorded-conditions: single dose MST screen against LpqY
Readings of Pathogen Box screen signal/noise ratio for the listed compounds

compound	Pathogen Box screen signal/noise ratio
CNC1C(OC2C(OC3C(O)C(O)C(NC(=N)N)C(O)C3NC(=N)N)OC(C)C2(O)C=O)OC(CO)C(O)C1O (centres unmarked)	0.56
Nc1cccnc1Nc1ccc(Cl)cc1	6.4
Clc1ccc(Cl)c(CO[C@H]2CCCC[C@@H]2n2ccnc2)c1	1.1
CC(=O)N1CCN(c2ccc(Oc3ccc(Cl)cc3O)cc2)CC1	1.8
COc1ccccc1C(C)NCC(=O)Nc1cc(C(F)(F)F)ccc1Cl (centres unmarked)	5.5
O=C(COc1cccc(F)c1)Nc1nc(-c2ccccn2)cs1	0.449
CC1CS(=O)(=O)CCN1/N=C/c1ccc([N+](=O)[O-])o1 (centres unmarked)	2.4
Cc1cc(C)cc(COc2ccc3c(C)c(CCC(=O)O)c(=O)oc3c2C)c1	2.7
Cc1cc2ccccc2n1CC(=O)N1CC(C(=O)N2CCCCC2)Oc2ccccc21 (centres unmarked)	2.0
Nc1ncnc2c1ncn2C[C@@H](O)[C@@H](O)C(=O)O	2.5
OCc1ccc(-c2cncc(Nc3cccc(Cl)c3)c2)cc1	0.563
COc1ccc(C2(C(=O)Nc3ccc(Br)cc3)CCCC2)cc1	1.4
O=C(NCCc1ccn(-c2ccccc2)n1)C1CCCCC1	0.0455
O=C(NCCc1c[nH]c2ccccc12)c1cc2ccccc2oc1=O	6.2
O=C(C1CCN(c2nnnn2-c2ccccc2)CC1)N1CCc2ccccc2C1	1.2
O=C(Nc1cccc(Cl)c1)c1cnc(N2CCN(c3ccncc3)CC2)c(Cl)c1	5.2
N#CCN(CCCCN1CCN(c2ccc(F)cc2)CC1)C(=O)OCc1ccccc1	0.322
COc1cc(C2=NCCN2)cc2cc(-c3ccc(C4=NCCN4)cc3)oc12	12.6
Cc1ccc(NC(=O)c2cc(S(=O)(=O)NC(C)(C)C)ccc2C)nc1	1.4
CCCCN(CCCC)c1c(C#N)cc(S(=O)(=O)Nc2ccccc2)cc1C#N	0.7
CCC(=O)Nc1ccccc1C(=O)Nc1ccccn1	1.4
Cc1cc(NC(=O)c2ccc(Oc3ccc(Cl)cc3O)o2)no1	0.4
COc1cc(NC(C)CCCN)c2ncccc2c1 (centres unmarked) [MMV000023, Primaquine, reference compound]	10.0
CCc1nc2ccccc2n1CC(O)COc1cc(C)ccc1Cl (centres unmarked)	1.2
CC(C)(C)CN1C(=O)C(c2ccccc2)(c2ccccc2)N=C1N	0.455
CCN(CC)CCCN1CCN(C(=O)c2cccc(-c3noc(C(F)(F)F)n3)c2)CC1	0.542
O=C(Nc1nc(-c2ccccn2)cs1)c1cncn1-c1ccccc1	0.561
COc1ccc(-c2cnc3ccc(NCc4ccc(S(N)(=O)=O)cc4)nn23)cn1	0.463
N#Cc1nc(-c2ccccc2F)oc1NCCc1ccccc1	1.0
CC(C)(C)OC(=O)N1CCN(c2cc(-c3ccc(Oc4ccccc4)cc3)n[nH]2)CC1	1.2
Cc1ccc2oc(-c3cc(NC(=O)Cc4ccccc4)ccc3Cl)nc2c1	3.4
CCCS(=O)(=O)N1CCC(CO)(Cc2ccccc2C(F)(F)F)CC1	0.0926
Cc1ccc(C(=O)Nc2ccc(S(=O)(=O)O)c3cc(S(=O)(=O)O)cc(S(=O)(=O)O)c23)cc1NC(=O)c1cccc(NC(=O)Nc2cccc(C(=O)Nc3cc(C(=O)Nc4ccc(S(=O)(=O)O)c5cc(S(=O)(=O)O)cc(S(=O)(=O)O)c45)ccc3C)c2)c1	0.7
O=C(OCc1ccccc1)N1CCC(c2cc(-c3ccncc3)c(-c3ccc(F)cc3)[nH]2)CC1	0.0833
CCC(C)NC(=O)c1ccc(NC(=O)C2(c3ccccc3)CCCC2)cc1 (centres unmarked)	-0.653
